Test system: A375-GP cells (Dabrafenib-resistant)
Experiment: Kinase inhibitor library screening, PrestoBlue cell viability, 1 or 10 μM, 72 h
Details: A375 GP, 10μΜ, 72 h; in %
Property name: cell viability, A375 GP, 10μΜ

| Compound | Result |
| --- | --- |
| Cc1cnc(Nc2ccc(N3CCN(C)CC3)cc2)nc1Nc1cccc(S(=O)(=O)NC(C)(C)C)c1 | 14.4 |
| C=CC(=O)Nc1cccc(Oc2nc(Nc3ccc(N4CCN(C)CC4)cc3)ncc2Cl)c1 | 22.9 |
| COc1cccc(-c2cc(=O)c3ccccc3o2)c1N | 83.6 |
| CCc1cc(Nc2nccc(-c3c(-c4ccc(OC)c(C(=O)Nc5c(F)cccc5F)c4)nc4ccccn34)n2)c(OC)cc1N1CCC(N2CCN(S(C)(=O)=O)CC2)CC1 [GSK1904529A] | 92.6 |
| CC(O)C(=O)O.CC(O)C(=O)O.CN1CCN(c2ccc3nc(-c4c(N)c5c(F)cccc5[nH]c4=O)[nH]c3c2)CC1 | 46.4 |
| CNC(=O)c1c(F)cccc1Nc1nc(Nc2cc3c(cc2OC)CCN3C(=O)CN(C)C)nc2[nH]ccc12 [GSK1838705A, reference compound] | 10.4 |
| CC(=O)Nc1cccc(-n2c(=O)n(C3CC3)c(=O)c3c(Nc4ccc(I)cc4F)n(C)c(=O)c(C)c32)c1 | 16.2 |
